B1: library; a variant is named by its letters at N, in order (parent)
chain: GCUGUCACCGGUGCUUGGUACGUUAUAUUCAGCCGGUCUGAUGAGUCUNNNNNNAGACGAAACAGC

Variants of: B1
Assay: normalized RNA/DNA level with ligand (relative to sTRSVctl = 100) (log10 (% of sTRSVctl)); HEK293T overexpressing SLC46A1; ligand concentration (+) RNA-Seq: 6 mM; higher = less ribozyme self-cleavage, higher mRNA level
Conditions: with (6R,S)-folinic acid; ligand present: yes
Quick list: normalized RNA/DNA level with ligand (log10) per entry.
Respond numerically, and do not add a unit to the figure.

GCUGUCACCGGUGCUUGGUACGUUAUAUUCAGCCGGUCUGAUGAGUCUGCUGGAAGACGAAACAGC | 2.07
GCUGUCACCGGUGCUUGGUACGUUAUAUUCAGCCGGUCUGAUGAGUCUGCAUCCAGACGAAACAGC | 2.05
GCUGUCACCGGUGCUUGGUACGUUAUAUUCAGCCGGUCUGAUGAGUCUGAGUCCAGACGAAACAGC | 2.04
GCUGUCACCGGUGCUUGGUACGUUAUAUUCAGCCGGUCUGAUGAGUCUCGCAACAGACGAAACAGC | 1.99
GCUGUCACCGGUGCUUGGUACGUUAUAUUCAGCCGGUCUGAUGAGUCUGUGCUUAGACGAAACAGC | 2.04

### Prompt Entry GCUGUCACCGGUGCUUGGUACGUUAUAUUCAGCCGGUCUGAUGAGUCUAUGGCUAGACGAAACAGC : reported normalized RNA/DNA level with ligand (log10) = ?
### Response 2.02

### Prompt And GCUGUCACCGGUGCUUGGUACGUUAUAUUCAGCCGGUCUGAUGAGUCUCCUUUGAGACGAAACAGC ?
### Response 2.01

### Prompt Lookup GCUGUCACCGGUGCUUGGUACGUUAUAUUCAGCCGGUCUGAUGAGUCUCCGCAUAGACGAAACAGC
### Response 2.02

### Prompt Same read-out for GCUGUCACCGGUGCUUGGUACGUUAUAUUCAGCCGGUCUGAUGAGUCUGUCUCAAGACGAAACAGC ?
### Response 2.01

### Prompt GCUGUCACCGGUGCUUGGUACGUUAUAUUCAGCCGGUCUGAUGAGUCUGUCGCCAGACGAAACAGC ?
### Response 2.02

### Prompt What do we get for GCUGUCACCGGUGCUUGGUACGUUAUAUUCAGCCGGUCUGAUGAGUCUGAUGCGAGACGAAACAGC ?
### Response 2.02

### Prompt What do we get for GCUGUCACCGGUGCUUGGUACGUUAUAUUCAGCCGGUCUGAUGAGUCUGACAUAAGACGAAACAGC ?
### Response 2.01

### Prompt Next record, please: GCUGUCACCGGUGCUUGGUACGUUAUAUUCAGCCGGUCUGAUGAGUCUGGAGACAGACGAAACAGC
### Response 2.01

### Prompt Here is the next variant: GCUGUCACCGGUGCUUGGUACGUUAUAUUCAGCCGGUCUGAUGAGUCUCGGCAUAGACGAAACAGC
### Response 2.02

### Prompt What do you have for GCUGUCACCGGUGCUUGGUACGUUAUAUUCAGCCGGUCUGAUGAGUCUAGCAACAGACGAAACAGC ?
### Response 2.01

### Prompt Try GCUGUCACCGGUGCUUGGUACGUUAUAUUCAGCCGGUCUGAUGAGUCUGCAGGCAGACGAAACAGC next.
### Response 1.86

### Prompt Item: GCUGUCACCGGUGCUUGGUACGUUAUAUUCAGCCGGUCUGAUGAGUCUGGCUCUAGACGAAACAGC
### Response 2.05

### Prompt And then GCUGUCACCGGUGCUUGGUACGUUAUAUUCAGCCGGUCUGAUGAGUCUAUUGGGAGACGAAACAGC , what is it?
### Response 1.99
